- System: THRa:RXRa (NR concentration 90 nM, RXRa partner concentration 90 nM)
- protocol summary: PBM binding z-score (relative to random genomic background probes); higher = stronger binding; sequences stand for … in GC…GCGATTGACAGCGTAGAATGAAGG
Where PBM binding z-score equals or exceeds 2, the correct label is Yes; where it does not, the label is No.

chain	label class
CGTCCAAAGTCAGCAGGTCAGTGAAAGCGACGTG	No
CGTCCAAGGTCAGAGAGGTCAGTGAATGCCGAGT	Yes
GCTTACGGGTCAAAGGTTATAGCGTGAATAGAAT	Yes
TCTGATAGGTCAACGATGGTCAGCTAATCTGCTA	Yes
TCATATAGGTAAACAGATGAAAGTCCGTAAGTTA	No
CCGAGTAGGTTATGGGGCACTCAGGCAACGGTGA	No
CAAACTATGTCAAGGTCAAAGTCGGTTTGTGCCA	Yes
CCTTACGGGTCACGAGGTTCTAGCACGACGAGCG	Yes
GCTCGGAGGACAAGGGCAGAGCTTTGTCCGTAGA	No
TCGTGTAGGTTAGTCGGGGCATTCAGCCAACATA	No
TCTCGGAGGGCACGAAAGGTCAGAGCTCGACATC	Yes
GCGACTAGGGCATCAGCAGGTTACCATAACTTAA	No
TCTAGCAGGCGAGAGGGTCACTCAAGAGGTACGG	No
GATACAGGGTCAAGGCCAGAGCACGCGTATTGAT	Yes
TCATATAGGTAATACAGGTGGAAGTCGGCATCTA	No
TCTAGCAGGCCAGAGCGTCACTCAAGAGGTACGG	No
CGTCCAAGGTCAGCTGGTCAGTGAAAGCGACGTG	Yes
ACTTACGGGTCAACGAGTTTATAGCACGCGTATA	Yes
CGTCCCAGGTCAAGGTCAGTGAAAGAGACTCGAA	Yes
TTACCAGGGTGAGCTGAGGTCGTTGATCCAACTC	Yes
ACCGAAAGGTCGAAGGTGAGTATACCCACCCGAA	Yes
CCTTACGGGTCAAGGTTATAGGACGGGTGGTACG	Yes
CCTAGCAGGCCAGTCTGGGTCACTCAAGGCTTGA	Yes
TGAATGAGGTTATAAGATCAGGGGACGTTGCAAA	Yes
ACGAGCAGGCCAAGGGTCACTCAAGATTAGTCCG	Yes

Origin of the recorded values: the supplement of paper PMC6555819
